Test system: Avena fatua
Test: Post-emergence herbicidal effect
Assay type: in vivo
Settings: 80 g ai/ha, visual score after about 3 weeks

>  <compound>
CC#Cc1cc(C)c(C2=C(OC(=O)OCC)C3(CCCC(OCCC)C3)NC2=O)c(OC)c1 (centres unmarked)

>  <target>
Avena fatua

>  <result.units>
%

>  <Post-emergence activity AVEFA>
100

$$$$
>  <compound>
C=CCOC1CCC2(CC1)NC(=O)C(c1c(C)cc(C#CC)cc1OC)=C2OC(=O)OC (centres unmarked)

>  <target>
Avena fatua

>  <result.units>
%

>  <Post-emergence activity AVEFA>
80

$$$$
>  <compound>
CC#Cc1cc(C)c(C2=C(O)C3(CCC(COC)CC3)NC2=O)c(OC)c1 (centres unmarked)

>  <target>
Avena fatua

>  <result.units>
%

>  <Post-emergence activity AVEFA>
100

$$$$
>  <compound>
CC#Cc1cc(C)c(C2=C(O)C3(CCC(OC(C)C)CC3)NC2=O)c(OC)c1 (centres unmarked)

>  <target>
Avena fatua

>  <result.units>
%

>  <Post-emergence activity AVEFA>
100

$$$$
>  <compound>
CC#Cc1cc(C)c(C2=C(OC(=O)OC)C3(CCCC(OCCC)C3)NC2=O)c(OC)c1 (centres unmarked) [Example P2]

>  <target>
Avena fatua

>  <result.units>
%

>  <Post-emergence activity AVEFA>
100

$$$$

====

Tested on: Alopecurus myosuroides
Experiment: Pre-emergence herbicidal effect
Assay type: in vivo
Conditions: 80 g ai/ha, visual score after 3 weeks

>  <molecule>
CC#Cc1cc(C)c(C2=C(OC(=O)OCC)C3(CCC(COC)CC3)NC2=O)c(OC)c1 (stereo not drawn)

>  <Pre-emergence activity ALOMY, %>
100

$$$$
>  <molecule>
CC#Cc1cc(C)c(C2=C(O)C3(CCC(OCCC)CC3)NC2=O)c(OC)c1 (stereo not drawn) [Example D2]

>  <Pre-emergence activity ALOMY, %>
80

$$$$
>  <molecule>
CC#Cc1cc(C)c(C2=C(OC(=O)OCC)C3(CCC(OCCC)CC3)NC2=O)c(OC)c1 (stereo not drawn)

>  <Pre-emergence activity ALOMY, %>
100

$$$$
>  <molecule>
CC#Cc1cc(C)c(C2=C(O)C3(CCC(COC)CC3)NC2=O)c(OC)c1 (stereo not drawn)

>  <Pre-emergence activity ALOMY, %>
80

$$$$
>  <molecule>
CC#Cc1cc(C)c(C2=C(O)C3(CCC(OC(C)C)CC3)NC2=O)c(OC)c1 (stereo not drawn)

>  <Pre-emergence activity ALOMY, %>
100

$$$$
>  <molecule>
C=CCOC1CCC2(CC1)NC(=O)C(c1c(C)cc(C#CC)cc1OC)=C2OC(=O)OCC (stereo not drawn)

>  <Pre-emergence activity ALOMY, %>
100

$$$$

====

System: Alopecurus myosuroides
Experiment: Pre-emergence herbicidal effect
Assay type: in vivo
Details: 320 g ai/ha, visual score after 3 weeks
measured.quantity: Pre-emergence activity ALOMY (%)

>  <compound>
CC#Cc1cc(C)c(C2=C(OC(=O)OCC)C3(CCC(COC)CC3)NC2=O)c(OC)c1 (stereo not shown)

>  <measured.quantity>
Pre-emergence activity ALOMY

>  <result.units>
%

>  <result>
100

$$$$
>  <compound>
CC#Cc1cc(C)c(C2=C(O)C3(CCC(OCCC)CC3)NC2=O)c(OC)c1 (stereo not shown) [Example D2]

>  <measured.quantity>
Pre-emergence activity ALOMY

>  <result.units>
%

>  <result>
100

$$$$
>  <compound>
CC#Cc1cc(C)c(C2=C(O)C3(CCC(COC)CC3)NC2=O)c(OC)c1 (stereo not shown)

>  <measured.quantity>
Pre-emergence activity ALOMY

>  <result.units>
%

>  <result>
100

$$$$
>  <compound>
CC#Cc1cc(C)c(C2=C(OC(=O)OCC)C3(CCC(OCCC)CC3)NC2=O)c(OC)c1 (stereo not shown)

>  <measured.quantity>
Pre-emergence activity ALOMY

>  <result.units>
%

>  <result>
100

$$$$

====

System: Avena fatua
Experiment: Post-emergence herbicidal effect
Format: in vivo
Settings: 80 g ai/ha, visual score after about 3 weeks
Description: [table] Seeds of monocotyledonous and dicotyledonous weed and crop plants are laid out in sandy loam soil in wood-fibre pots, covered with soil and cultivated in a greenhouse under good growth conditions. 2 to 3 weeks after sowing, the test plants are treated at the one-leaf stage. […]
Here the recorded Post-emergence activity AVEFA is given for each entry.
measured.quantity: Post-emergence activity AVEFA

>  <compound>
CC#Cc1cc(C)c(C2=C(OC(=O)OCC)C3(CCC(OCCC)CC3)NC2=O)c(OC)c1 (centres unmarked)

>  <measured.quantity>
Post-emergence activity AVEFA

>  <result>
90%

$$$$
>  <compound>
CC#Cc1cc(C)c(C2=C(OC(=O)OCC)C3(CCC(COC)CC3)NC2=O)c(OC)c1 (centres unmarked)

>  <measured.quantity>
Post-emergence activity AVEFA

>  <result>
100%

$$$$
>  <compound>
CC#Cc1cc(C)c(C2=C(O)C3(CCC(OCCC)CC3)NC2=O)c(OC)c1 (centres unmarked) [Example D2]

>  <measured.quantity>
Post-emergence activity AVEFA

>  <result>
100%

$$$$
>  <compound>
CC#Cc1cc(C)c(C2=C(O)C3(CCCC(OCCC)C3)NC2=O)c(OC)c1 (centres unmarked) [Example D1]

>  <measured.quantity>
Post-emergence activity AVEFA

>  <result>
100%

$$$$
>  <compound>
C=CCOC1CCC2(CC1)NC(=O)C(c1c(C)cc(C#CC)cc1OC)=C2OC(=O)OCC (centres unmarked)

>  <measured.quantity>
Post-emergence activity AVEFA

>  <result>
90%

$$$$
>  <compound>
CC#Cc1cc(C)c(C2=C(OC(=O)C(C)C)C3(CCCC(OCCC)C3)NC2=O)c(OC)c1 (centres unmarked)

>  <measured.quantity>
Post-emergence activity AVEFA

>  <result>
100%

$$$$
>  <compound>
CC#Cc1cc(C)c(C2=C(OC(=O)CC)C3(CCCC(OCCC)C3)NC2=O)c(OC)c1 (centres unmarked)

>  <measured.quantity>
Post-emergence activity AVEFA

>  <result>
100%

$$$$
>  <compound>
C=CCOC1CCC2(CC1)NC(=O)C(c1c(C)cc(C#CC)cc1OC)=C2O (centres unmarked)

>  <measured.quantity>
Post-emergence activity AVEFA

>  <result>
100%

$$$$

====

In this section, each of the molecules is paired with its reported Pre-emergence activity LOLRI.
Tested on: Lolium rigidum
Experiment: Pre-emergence herbicidal effect
Format: in vivo
Details: 80 g ai/ha, visual score after 3 weeks

>  <molecule>
CC#Cc1cc(C)c(C2=C(O)C3(CCC(OCCC)CC3)NC2=O)c(OC)c1 (stereo not drawn) [Example D2]

>  <result.units>
%

>  <Pre-emergence activity LOLRI>
90

$$$$
>  <molecule>
CC#Cc1cc(C)c(C2=C(OC(=O)OCC)C3(CCC(COC)CC3)NC2=O)c(OC)c1 (stereo not drawn) [Example Q8]

>  <result.units>
%

>  <Pre-emergence activity LOLRI>
100

$$$$
>  <molecule>
C=CCOC1CCC2(CC1)NC(=O)C(c1c(C)cc(C#CC)cc1OC)=C2OC(=O)OCC (stereo not drawn) [Example Q4]

>  <result.units>
%

>  <Pre-emergence activity LOLRI>
100

$$$$
>  <molecule>
CC#Cc1cc(C)c(C2=C(O)C3(CCC(COC)CC3)NC2=O)c(OC)c1 (stereo not drawn) [Example D6]

>  <result.units>
%

>  <Pre-emergence activity LOLRI>
100

$$$$
>  <molecule>
CC#Cc1cc(C)c(C2=C(OC(=O)OCC)C3(CCC(OCCC)CC3)NC2=O)c(OC)c1 (stereo not drawn) [Example Q2]

>  <result.units>
%

>  <Pre-emergence activity LOLRI>
100

$$$$
>  <molecule>
CC#Cc1cc(C)c(C2=C(O)C3(CCC(OC(C)C)CC3)NC2=O)c(OC)c1 (stereo not drawn) [Example D3]

>  <result.units>
%

>  <Pre-emergence activity LOLRI>
100

$$$$

From: patent US20220177428A1
